# Target Or Test System: human CB1 cannabinoid receptor (Homo sapiens (Human), UniProt P21554)
# Sequence (P21554 whole entry): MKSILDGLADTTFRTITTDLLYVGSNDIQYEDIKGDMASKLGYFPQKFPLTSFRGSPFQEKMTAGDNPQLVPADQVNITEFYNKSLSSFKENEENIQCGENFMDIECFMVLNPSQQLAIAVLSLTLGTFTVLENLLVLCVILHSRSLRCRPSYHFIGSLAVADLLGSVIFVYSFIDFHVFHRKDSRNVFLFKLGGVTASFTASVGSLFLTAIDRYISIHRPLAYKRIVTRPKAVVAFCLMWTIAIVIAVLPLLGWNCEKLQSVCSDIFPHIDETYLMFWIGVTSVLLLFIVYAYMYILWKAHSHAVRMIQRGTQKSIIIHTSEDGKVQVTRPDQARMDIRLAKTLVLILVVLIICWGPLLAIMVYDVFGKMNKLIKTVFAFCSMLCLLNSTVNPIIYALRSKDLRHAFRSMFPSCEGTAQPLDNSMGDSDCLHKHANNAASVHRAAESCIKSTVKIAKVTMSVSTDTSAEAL
# Assay Text: Radioligand binding assay, CB1 ([3H]-CP 55,940 competition)
# Condition Label: plasma membranes of HEK 293 EBNA cells transfected with human CB1; 0.72 nM [3H]-CP 55,940; NA = not active
Listing of recorded log10(IC50) by entry.
Recorded Metric: log10(IC50) (log10 of the value in µM)

1) CN(C)CCN(C)c1cnn(C2CC(C)(C)CC(C)(C)C2)c(=O)c1Cl | 0.42
2) CCCNc1cnn(C2CC(C)(C)CC(C)(C)C2)c(=O)c1Br | -0.76
3) CCCNc1cnn(C2CC(C)(C)CC(C)(C)C2)c(=O)c1Cl | 0.01
4) CN(C)CCNc1cnn(C2CC(C)(C)CC(C)(C)C2)c(=O)c1Br | 0.87
5) CC1(C)CC(n2ncc(NCCN3CCOCC3)c(Cl)c2=O)CC(C)(C)C1 | 0.60
6) CN(C)c1cnn(C2CC(C)(C)CC(C)(C)C2)c(=O)c1Cl | 0.01
7) CCCn1ncc2c(=O)n(C3CC(C)(C)CC(C)(C)C3)ncc21 | -0.59
8) CN(C)CCn1ncc2c(=O)n(C3CC(C)(C)CC(C)(C)C3)ncc21 | 0.60
